SUBJECT OF TEST: Tyrosine-protein kinase Tec (Homo sapiens) (UniProt P42680)
Sequence (whole entry): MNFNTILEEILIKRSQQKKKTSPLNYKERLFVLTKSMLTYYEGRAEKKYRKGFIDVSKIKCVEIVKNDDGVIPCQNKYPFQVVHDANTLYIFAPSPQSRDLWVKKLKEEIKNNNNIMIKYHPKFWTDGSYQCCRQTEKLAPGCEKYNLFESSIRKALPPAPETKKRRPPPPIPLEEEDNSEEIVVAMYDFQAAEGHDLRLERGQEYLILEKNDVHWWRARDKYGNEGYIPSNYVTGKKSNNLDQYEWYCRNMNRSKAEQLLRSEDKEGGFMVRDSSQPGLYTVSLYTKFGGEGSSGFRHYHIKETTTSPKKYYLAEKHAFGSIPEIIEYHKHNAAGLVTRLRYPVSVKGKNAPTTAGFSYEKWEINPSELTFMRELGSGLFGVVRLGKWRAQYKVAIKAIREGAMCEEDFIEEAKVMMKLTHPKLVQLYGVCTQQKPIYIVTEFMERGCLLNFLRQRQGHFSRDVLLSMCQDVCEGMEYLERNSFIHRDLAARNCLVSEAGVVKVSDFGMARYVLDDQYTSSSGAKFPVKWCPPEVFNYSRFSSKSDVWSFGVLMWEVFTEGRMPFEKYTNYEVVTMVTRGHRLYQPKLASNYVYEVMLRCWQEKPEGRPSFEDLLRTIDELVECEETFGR
EXPERIMENTAL PARAMETERS: at 1 µM
MEASURED ENDPOINT: residual activity (%)

COMPOUND: N#Cc1cnc2cnc(NCc3cccnc3)cc2c1Nc1ccc(F)c(Cl)c1
OBSERVED RESULT: 90

COMPOUND: Ic1cccc(CSc2nnc(-c3ccncc3)o2)c1
OBSERVED RESULT: 90

COMPOUND: O=C1Nc2ccccc2/C1=C1/Nc2ccccc2/C1=N\OCCC(O)CO (configuration not stated)
OBSERVED RESULT: 47

COMPOUND: O=C1Nc2cc(Br)ccc2/C1=C1/Nc2ccccc2/C1=N\O
OBSERVED RESULT: 15

COMPOUND: COc1ccc(OC)c2c(=S)c3ccccc3[nH]c12
OBSERVED RESULT: 92

COMPOUND: Nc1ccc2ncnc(NCCc3ccc(Oc4ccccc4)cc3)c2c1
OBSERVED RESULT: 84

COMPOUND: O=c1c2ccccc2[nH]c(=S)n1CCN1CCC(=C(c2ccc(F)cc2)c2ccc(F)cc2)CC1
OBSERVED RESULT: 94

COMPOUND: CNc1cc2c(Nc3cccc(Br)c3)ncnc2cn1
OBSERVED RESULT: 96

COMPOUND: Nc1n[nH]c2nnc(-c3c(-c4ccccc4)nn4ccccc34)cc12
OBSERVED RESULT: 82

COMPOUND: O=C(O)c1ccc2c3c1cccc3c(=O)n1c3ccccc3nc21
OBSERVED RESULT: 99

COMPOUND: O=c1cc(-c2cccc3c2Sc2ccccc2S3)oc(N2CCOCC2)c1
OBSERVED RESULT: 94

COMPOUND: O=C(Nc1cccc(Nc2cc(Nc3cccc(C(F)(F)F)c3)ncn2)c1)C1CC1
OBSERVED RESULT: 96

COMPOUND: Cc1cncc2cccc(S(=O)(=O)N3CCCN(C(=O)CN)C[C@H]3C)c12
OBSERVED RESULT: 100

COMPOUND: CC(C)n1cnc2c(NCc3ccccc3)nc(NCCCO)nc21
OBSERVED RESULT: 90

COMPOUND: Cn1nc2c3c(cccc31)C(=O)c1ccccc1-2
OBSERVED RESULT: 90

COMPOUND: O=[N+]([O-])c1ccc(-c2nc(-c3ccc(F)cc3)c(-c3ccncc3)[nH]2)cc1
OBSERVED RESULT: 98

COMPOUND: CN(C)c1ccc(/C=C2\C(=O)Nc3ccccc32)cc1
OBSERVED RESULT: 87

COMPOUND: Cc1cc2ncc(-c3ccccc3)nc2cc1C
OBSERVED RESULT: 90

COMPOUND: Oc1n[nH]c2nnc(-c3c(-c4ccccc4)nn4ccccc34)cc12
OBSERVED RESULT: 85

COMPOUND: c1ccc2c(-c3ccncc3)c[nH]c2c1
OBSERVED RESULT: 103

COMPOUND: COc1ccc(S(=O)(=O)N(CCO)c2ccccc2CN(C)C/C=C/c2ccc(Cl)cc2)cc1
OBSERVED RESULT: 102

COMPOUND: CO[C@H]1[C@@H](OC)C[C@H](C)[C@@H](OC)C2=CC(=O)C=C(NC(=O)/C(C)=C/C=C/[C@H](OC)[C@@H](OC(N)=O)/C(C)=C/[C@@H]1C)C2=O
OBSERVED RESULT: 89

Data credit: ChEMBL document CHEMBL2218924
